Measured melting point, listed per entry for reference.

Worked cases, melting point given:
CCOC(=O)Cc1ccc(-c2cn3ccsc3n2)cc1 | 117 to 119 °C
COc1cc2ncc(N[C@@H]3C[C@H]4CC[C@@H]3C4)nc2cc1OC | 184 to 186 °C
CN(C)c1nc(N(C)C)nc(N(C)Cc2ccc(O)cc2)n1 | 163 to 164 °C

Pending compound:
(Q) Endpoint output: melting point of `CCOC(=O)c1cccc2nc(C)n(Cc3ccc(-c4ccccc4-c4nnn[nH]4)cc3)c12` . Value?
(A) 205 to 206 °C

----------
Readout Label: melting point

Worked cases, melting point given:
CN1CCN(S(=O)(=O)c2cccc(NC(=O)c3cnn4c(C(F)(F)F)cc(-c5ccc(Cl)cc5)nc34)c2)CC1 | 195 °C
CN(C)C(=O)COC(=O)c1cc(S(N)(=O)=O)c(Cl)cc1NCc1ccco1 | 193 to 194 °C
O=c1c2c(n(-c3ccccc3)c3ncccc13)OCC2 | 245 to 247 °C

Pending compound:
(Q) Endpoint output: melting point of O=C(O)C(Oc1ccccc1)c1ccc(Oc2ccc(Cl)cc2)cc1 (configuration not stated) . Value?
(A) 114 to 116 °C

----------
Readout Label: melting point

Worked cases, melting point given:
COc1ccc(/C=C/C(=O)Nc2ccccc2C(=O)NCc2cn(CC(=O)Nc3ccccc3)nn2)cc1OC | 189 to 191 °C
COc1cc(Br)cc2cc(C(C)=O)oc12 | 107 to 109 °C
OCCC1=Cc2ccccc2C1 | 47 to 49 °C
Brc1ccc2c(c1Cc1cccc3cnccc13)OCO2 | 194 to 197 °C
CN1C(=O)C2C3CCC(C3)C2(c2ccc(N)cc2)C1=O (stereo not drawn) | 131 to 133 °C

(Q) Endpoint output: melting point of `CCCc1c(OCc2ccccc2C(=O)NCCCCc2cccnc2)ccc(C(C)=O)c1O` . Value?
(A) 135 to 139 °C

(Q) Here is the next compound: Cc1cccc(C(O)CNC(N)=C(CCSCc2cc(C)c(CN(C)C)s2)[N+](=O)[O-])c1 (stereo not drawn)
(A) 88 to 89 °C

(Q) Here is the next compound: `CCOC(=O)c1cc2c3cccc(OC)c3ncn2c1`
(A) 154 to 155 °C

----------
Readout Label: melting point

Worked cases, melting point given:
Cc1ncc([N+](=O)[O-])cc1C(=O)NC(=O)C(C)(C)C | 138 to 139 °C
NS(=O)(=O)c1ccc(-n2cc(-c3ccccc3)cc2-c2ccc(F)cc2)cc1 | 192 to 194 °C

(Q) Endpoint output: melting point of `Cc1ccc2oc(OCC(=O)N(c3ccccc3)C(C)C)nc2c1` . Value?
(A) 108 °C

(Q) Here is the next compound: `COC(=O)c1cc(OC)c(Cl)cc1N`
(A) 63 to 64 °C

(Q) Here is the next compound: `CSc1nn2c(Cl)cc(C)nc2c1S(=O)(=O)c1ccc(C)cc1`
(A) 197 to 198 °C

(Q) Here is the next compound: `CCOC(=O)c1c(N)c2ccc(C)nc2n(CC)c1=O`
(A) 196 to 198 °C

----------
Readout Label: melting point

Worked cases, melting point given:
CCn1nc(-c2ccccc2)c(C(C)=O)c(Nc2cc(Br)cc3cccnc23)c1=O | 147 to 148 °C
CCOCc1nc2c(N)nc3cccnc3c2n1CCCC(N)=O | 231 to 232 °C
CCOC(=O)c1cc2c(C)ccc3c2n1CCC3=O | 103 to 104 °C
Cc1ccc(S(=O)(=O)Nc2ccccc2)cc1 | 96 to 98 °C

(Q) Endpoint output: melting point of `CCOC(=O)C(=Cc1cc(C(=O)OCC)c(=O)n2ccccc12)C(=O)OCC` . Value?
(A) 149 to 151 °C

(Q) Here is the next compound: `CC1(c2nc(-c3ccc(Cl)cc3)c(CCC(=O)O)o2)CCCCC1`
(A) 138 to 139 °C

----------
Measured melting point, listed per entry for reference.

Worked cases, melting point given:
COc1ccc(C=N[C@H]2C(OC(C)=O)O[C@H](COC(C)=O)[C@@H](OC(C)=O)[C@@H]2OC(C)=O)cc1 (stereo partly drawn) | 180 to 181 °C
CC(C)(C)OC(=O)C(F)=CC1C(C(=O)OC(C#N)c2cccc(Oc3ccccc3)c2)C1(C)C (stereo not drawn) | 103 °C
O=C(NCc1ccccn1)Nc1cc(N2CC3(CCCCC3)CC2=O)ccn1 | 191 to 192 °C
Cc1ccc(-c2ccccc2)cc1C#N | 71 to 73 °C
COc1cc(Nc2nc3cccc(-c4cccnc4)c3o2)cc(OC)c1OC | 165 to 170 °C

(Q) Endpoint output: melting point of `O=C(O)[C@H](Cc1cncn1COCc1ccccc1)NS(=O)(=O)CCc1ccccc1` . Value?
(A) 223 to 233 °C

(Q) Here is the next compound: `COC(=O)c1cccc(Oc2ccc([N+](=O)[O-])cc2C(=O)OC)c1`
(A) 97 to 99 °C

(Q) Here is the next compound: O=C1C(=Cc2ccc(Cl)cc2)CC23OC2C=CC=C13 (stereo not drawn)
(A) 162 to 164 °C

(Q) Here is the next compound: CC(C)(C)c1ccc(CCC(CC2CCCCC2)OC(=O)OCC(=O)O)cc1NC(=O)CC1c2ccccc2Oc2ccccc21 (stereo not drawn)
(A) 143 to 145 °C

(Q) Here is the next compound: `N#CNc1ccccc1-c1ccc(F)cc1`
(A) 95 to 96 °C

(Q) Here is the next compound: `NS(=O)(=O)c1ccc(-c2cccc(-c3nc(-c4ccc(F)c(F)c4)cc(C(F)(F)F)n3)c2)s1`
(A) 238 °C

(Q) Here is the next compound: CCOP(=O)(OCC)C1CNc2ccc(C(F)(F)F)cc2C1 (stereo not drawn)
(A) 112 °C

(Q) Here is the next compound: CCC1C(=O)Nc2cc(N)c(N)cc21 (stereo not drawn)
(A) > 300 °C

----------
Measured melting point, listed per entry for reference.

Worked cases, melting point given:
COc1ccc([C@@H]2c3ccccc3C[C@@H]3CC(=O)NCCN32)cc1 (racemic) | 196 to 198 °C
O=[N+]([O-])c1cc(Br)cc(O)c1O | 102 to 105 °C
COc1cc(N)c2nccc(C)c2c1OCCCCCc1ccco1 | 41 to 42 °C
N#Cc1cccc2c1CC(=NN)c1ccc(F)cc1S2 | 178 to 179 °C
COCCCNc1cccc(Oc2ccc(-c3cn(C4CCOC4)c4ncnc(N)c34)cc2)c1C#N (stereo not drawn) | 183 to 184 °C

(Q) Endpoint output: melting point of O=C(CCc1ccccc1)CN1C(=O)CC1S(=O)CCO (stereo not drawn) . Value?
(A) 64 to 65 °C

(Q) Here is the next compound: `COc1cc2c(cc1Cl)CCNC[C@H]2c1ccccc1`
(A) 81 to 82 °C

(Q) Here is the next compound: `CCOC(=O)c1cn(Cc2c(F)cccc2F)c2cc(Br)c(CBr)cc2c1=O`
(A) 184 to 187 °C

----------
Measured melting point, listed per entry for reference.
The response must be a number in °C with no trailing unit.

Cc1cc(-c2cc(C(F)(F)F)n3cnc(-c4cccnc4)c3n2)ccc1C(F)(F)F | 173

(Q) Endpoint output: melting point of `COC(=O)c1cc(C)cc(Br)c1NS(=O)(=O)c1ccc(OC)cc1` . Value?
(A) 113

(Q) Here is the next molecule: `COc1cc(-c2nc3ccccc3n2Cc2ccc(Cl)c(Cl)c2)cc(OC)c1OC`
(A) 145

(Q) Here is the next molecule: `N#CCCCC(=O)c1cc2ccccc2o1`
(A) 79

----------
Measured melting point, listed per entry for reference.

(Q) Endpoint output: melting point of CCOC(=O)c1cc(NC(=O)C(Cc2ccccc2)NC(=O)OC(C)(C)C)c[nH]1 (stereo not given) . Value?
(A) 148 to 151 °C

(Q) Here is the next compound: `COC(=O)c1cn(-c2ncnc3c2ccn3C)c2ncccc12`
(A) 207 °C

(Q) Here is the next compound: `COC(=O)CSC=C1C(=O)OC(C)(C)OC1=O`
(A) 117 to 118 °C

(Q) Here is the next compound: `N#Cc1ccc(-c2ccc(Cl)cc2Cl)c(F)c1`
(A) 65 to 67 °C

(Q) Here is the next compound: `Cc1ccc(-c2nc3ccccc3[nH]2)nc1`
(A) 229 to 230 °C

----------
Readout Label: melting point

Worked cases, melting point given:
CC(c1cc(Cl)cc(Cl)c1O)c1cc(F)cc(CO)c1O (stereo not drawn) | 148 °C
CCOC(=O)C(=CNc1ccc(F)c(F)c1OCC1CN(Cc2ccccc2)CCN1Cc1ccccc1)C(=O)OCC (stereo not drawn) | 109 to 110 °C
CCOC(=O)c1cc2c(OC=O)c(OC[C@H]3CO3)ccc2[nH]1 | 123 to 125 °C

(Q) Endpoint output: melting point of `C#CCOc1nc(N)c(C(F)(F)F)cc1Cl` . Value?
(A) 56 to 58 °C

(Q) Here is the next molecule: O=C1C(Cc2ccccc2)NC(=S)N1c1ccccc1 (stereo not drawn)
(A) 187 to 189 °C
